Tested on: HL-60
Experiment: NCI tumour cell line growth inhibition, 48 h
Calls of active or inactive are those of the source. Rule as the data show it: active = GI50 up to about 1.1 µM and inactive = higher.
Listing of entries alongside the reported GI50.

These solved cases illustrate the format of a correct answer.
# MOLECULE, RESULT
records = [
    ("Cc1cc(=O)n2nc(SCc3ccccc3)sc2n1", "> 100 µM (inactive)"),
    ("Cc1[nH]c(-c2ccccc2)c(O)c1C(=O)OC1CC(C)CCC1C(C)C (stereo unspecified)", "16.4 µM (inactive)"),
    ("OC1CC2CCCN(CCc3c1[nH]c1ccccc31)C2 (stereo unspecified)", "> 100 µM (inactive)"),
    ("Cc1ccc2c(c1C)CC1(Cc3ccc(C)c(C)c3C1=O)C2=O (stereo unspecified)", "94.6 µM (inactive)"),
    ("C[C@H]1[C@H](C)CC[C@]2(C)CC[C@]3(C)C(=C[C@@H](O)[C@@H]4[C@@]5(C)[C@H](O)[C@@H](O)[C@H](O)C(C)(C)[C@@H]5CC[C@]43C)[C@H]12", "> 100 µM (inactive)"),
]

Continue with the molecule presented below.
Record CC1(C)COC(c2cccc(C(O)c3ccc(Cl)cc3)c2)=N1 (stereo unspecified) , field GI50: 41 µM (inactive)
